Data origin, for the record: the supplement of paper PMC11246515

assay: total protein half-life in vivo (active degradation + dilution); higher = more stable protein; details: E. coli NCM3722 delta-clpP; growth: N-lim chemostat; doubling time 6 h
recorded_metric: total protein half-life in vivo (h)
The reply should be a number in h, with the unit left off.

IN: Which value of total protein half-life in vivo has been reported for MRLCDRDIEAWLDEGRLSINPRPPVERINGATVDVRLGNKFRTFRGHTAAFIDLSGPKDEVSAALDRVMSDEIVLDEGEAFYLHPGELALAVTLESVTLPADLVGWLDGRSSLARLGLMVHVTAHRIDPGWSGCIVLEFYNSGKLPLALRPGMLIGALSFEPLSGPAVRPYNRREDAKYRNQQGAVASRIDKD in the records?
OUT: 3.36

IN: Same lookup for MLDLFKAIGLGLVVLLPLANPLTTVALFLGLAGNMNSAERNRQSLMASVYVFAIMMVAYYAGQLVMDTFGISIPGLRIAGGLIVAFIGFRMLFPQQKAIDSPEAKSKSEELEDEPSANIAFVPLAMPSTAGPGTIAMIISSASTVRQSSTFADWVLMVAPPLIFFLVAVILWGSLRSSGAIMRLVGKGGIEAISRLMGFLLVCMGVQFIINGILEIIKTYH [P0AEY1] , please.
OUT: 6.57
